B1: EMD (parent)
chain: YQSKGYNDDYYEESYFTTRTYGEP

variants of: B1; experiment: protein stability index of a GFP-peptide fusion (GPS, HEK-293T) (PSI 1-6); higher = more stable; details: c terminus: a fixed tail appended;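 note: lentivirally expressed fusions sorted by FACS into six bins by GFP to DsRed ratio, PSI derived from sequencing read proportions per bin multiplied by bin number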
I'd be grateful if you could share measured protein stability index for these entries.
One number for each entry.

{"columns": ["mutation_name", "readout_kind", "endpoint_value"],
 "data": [
  ["Q2L", "protein stability index", 2.5]
]}

Hi! Can you tell me protein stability index for each of these variants?
1. N7T
2. K4E
3. G5V
4. E12A
5. Y1H
6. T18L

**Result**
1: 2.14; 2: 3.46; 3: 2.06; 4: 2.19; 5: 3.76; 6: 2.11
